FYI, the data here is from PubChem BioAssay (NCI).

- Tested on: KM12 colon
- assay_protocol: NCI tumour cell line growth inhibition, 48 h
In this section, each of the compounds is paired with its reported TGI.

[
  {
    "compound": "C=C1CCC2C(C)(C)CCC[C@]2(C)[C@H]1CO (stereo partly drawn)",
    "measured_value": "> 100 µM"
  },
  {
    "compound": "N#CCCN(CCC#N)c1ccc(/C=C2\\N=C(c3ccccc3)N(NC(N)=S)C2=O)cc1",
    "measured_value": "> 100 µM"
  },
  {
    "compound": "CSc1c(C#N)c(N)nc2c(N=Nc3ccc(Cl)cc3)c(N)nn12",
    "measured_value": "11.8 µM"
  }
]

// compound Cc1cc(NC[C@H](O)[C@H](O)[C@H](O)CO)c(Sc2cc(=O)[nH]c(=O)[nH]2)cc1C , assay KM12 colon, TGI value: > 62.5 µM

Query CC(=O)OCC1OC(SC2OC(COC(C)=O)C(OC(C)=O)C(OC(C)=O)C2OC(C)=O)C(OC(C)=O)C(OC(C)=O)C1OC(C)=O (stereo not drawn) on KM12 colon; TGI returned: > 100 µM

Item c1cc(CNCCN2CCNCC2)ccn1 ; assay system KM12 colon; TGI reported as > 100 µM

// assay KM12 colon, entry CS(=O)(=O)N(N(CCCl)S(=O)(=O)c1ccccc1)S(C)(=O)=O , TGI value = > 100 µM

Form: item COc1cc(/C=C/C(=O)c2ccc(NC(=O)CN3CCN(c4cc5c(cc4F)c(=O)c(C(=O)O)cn5C4CC4)CC3)cc2)cc(OC)c1OC ; test system KM12 colon; TGI: 2.31 µM

====

- System: HCT-15 colon
- assay_protocol: NCI tumour cell line growth inhibition, 48 h; in the data active means GI50 below about 0.43 µM; inactive means the rest
Form entry, call: pick from yes (active), no (inactive)

(Q) Identify the outcome logged in this assay for the compound shown: CCN(C(=O)c1cc(F)ccc1Oc1cncnc1N1CC2(CCN(CC3CCC(NS(=O)(=O)CC)CC3)CC2)C1)C(C)C (stereo not given)
(A) no

(Q) Just curious, what result did CN1c2ccccc2C(C)(C)C12C=Cc1cc(O)ccc1O2 (stereo not given) get here?
(A) no

(Q) Please share the test call associated with COc1ccc(Cn2cc3c(c2-c2ccc(OC)cc2)CCc2cnoc2-3)cc1 .
(A) no

(Q) Record request — test call for COc1cc2c3c(n(CCCI)c(=O)c2cc1OC)-c1cc2c(cc1C3=O)OCO2
(A) no

(Q) Which outcome was assigned to C=C1CCC2C(C)(C)CCC[C@]2(C)[C@H]1CO (stereo not given in full) in this test?
(A) no

(Q) So what was the verdict on O=C(NCc1ccc(Cn2c(=O)sn(-c3ccccc3)c2=O)cc1)OCc1ccc2c(Br)cc(Br)c(O)c2n1 in this test?
(A) yes

(Q) Please share the test call associated with CC1(C)[C@@H](O[C@@H]2OC[C@@H](O[C@@H]3O[C@H](CO)[C@@H](O)[C@H](O)[C@H]3O[C@@H]3OC[C@@H](O)[C@H](O)[C@H]3O)[C@H](O)[C@H]2O[C@@H]2O[C@H](CO)[C@@H](O)[C@H](O)[C@H]2O)CC[C@]2(C)[C@H]3CC[C@]45OC[C@@]6(CC[C@](C)(C=O)C[C@H]64)[C@H](O)C[C@@]5(C)[C@]3(C)CC[C@@H]12 .
(A) no

(Q) Short answer needed: outcome of this test for Cc1cccc2c(=O)c3c(sc12)c(NCCNCCO)nc1ccccc13 ?
(A) no

(Q) What call does the record list for Fc1ccc(Nc2nc3nonc3nc2Nc2ccc(F)cc2)cc1 ?
(A) yes

(Q) What is the recorded call for this compound in the test? CN(CC(=O)N(Cc1ccc(C2CCCCC2)cc1)c1ccc(C(=O)O)c(O)c1)S(=O)(=O)c1c(F)c(F)c(F)c(F)c1F
(A) no
